Values compiled from patent US11479559B2.

Molecular target: UniProtKB P35968
Sequence (P35968 20-1356): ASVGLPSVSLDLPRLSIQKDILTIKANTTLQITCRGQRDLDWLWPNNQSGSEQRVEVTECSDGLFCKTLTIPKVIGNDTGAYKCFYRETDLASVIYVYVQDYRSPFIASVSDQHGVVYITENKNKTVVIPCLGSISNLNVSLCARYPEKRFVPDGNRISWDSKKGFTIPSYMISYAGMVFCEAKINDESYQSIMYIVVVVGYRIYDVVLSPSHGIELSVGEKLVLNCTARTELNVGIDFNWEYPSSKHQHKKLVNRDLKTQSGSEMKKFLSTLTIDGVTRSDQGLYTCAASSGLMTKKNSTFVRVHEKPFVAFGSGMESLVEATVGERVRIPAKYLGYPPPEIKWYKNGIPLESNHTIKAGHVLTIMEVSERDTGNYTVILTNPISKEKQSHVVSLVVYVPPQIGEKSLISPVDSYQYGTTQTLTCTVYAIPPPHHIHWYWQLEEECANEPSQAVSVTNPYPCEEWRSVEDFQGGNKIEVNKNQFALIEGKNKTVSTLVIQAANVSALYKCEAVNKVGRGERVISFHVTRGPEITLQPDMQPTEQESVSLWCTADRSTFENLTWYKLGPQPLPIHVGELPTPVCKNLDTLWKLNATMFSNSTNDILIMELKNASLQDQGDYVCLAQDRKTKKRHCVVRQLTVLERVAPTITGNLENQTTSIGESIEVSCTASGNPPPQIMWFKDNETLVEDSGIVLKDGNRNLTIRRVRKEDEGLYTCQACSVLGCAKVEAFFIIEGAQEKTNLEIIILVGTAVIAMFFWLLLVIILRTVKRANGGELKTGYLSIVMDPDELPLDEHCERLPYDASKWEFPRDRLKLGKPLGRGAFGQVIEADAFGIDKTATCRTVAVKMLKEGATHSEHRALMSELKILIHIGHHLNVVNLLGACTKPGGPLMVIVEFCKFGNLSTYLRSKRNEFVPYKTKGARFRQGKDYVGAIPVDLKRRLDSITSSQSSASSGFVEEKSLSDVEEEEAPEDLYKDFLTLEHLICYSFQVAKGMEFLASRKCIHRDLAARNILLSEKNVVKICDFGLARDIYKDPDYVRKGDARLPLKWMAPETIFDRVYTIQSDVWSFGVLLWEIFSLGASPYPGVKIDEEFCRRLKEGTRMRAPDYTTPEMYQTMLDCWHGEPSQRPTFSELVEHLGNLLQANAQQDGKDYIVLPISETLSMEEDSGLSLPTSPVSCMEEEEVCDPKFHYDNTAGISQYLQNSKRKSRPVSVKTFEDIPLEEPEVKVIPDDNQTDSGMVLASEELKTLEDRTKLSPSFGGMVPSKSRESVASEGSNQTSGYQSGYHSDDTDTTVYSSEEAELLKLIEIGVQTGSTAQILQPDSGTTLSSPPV
Assay: Assay of small molecular compounds for inhibiting the activity of VEGFR-2 kinase (LANCE TR-FRET)
Items are presented alongside their recorded IC50.

{"molecule-smiles": "COc1cc2nccc(Oc3ccc(NC(=O)NC4CC4)c(F)c3)c2c2c1OCCO2", "IC50": "< 50 nM"}
{"molecule-smiles": "CCCNC(=O)Nc1ccc(Oc2ccnc3cc(OCCCN4CCOCC4)c4c(c23)OCCO4)cc1Cl", "IC50": "< 50 nM"}
{"molecule-smiles": "N#CCCCOc1cc2nccc(Oc3ccc(NC(=O)Nc4ccc(Cl)c(C(F)(F)F)c4)cc3)c2c2c1OCCO2", "IC50": "50 to 500 nM"}
{"molecule-smiles": "CCNC(=O)Nc1ccc(Oc2ccnc3cc(OCCCN4CCOCC4)c4c(c23)OCCO4)cc1Cl", "IC50": "< 50 nM"}
{"molecule-smiles": "COc1cc2nccc(Oc3ccc(NC(=O)NC4CC4)c(Cl)c3)c2c2c1OCCO2", "IC50": "< 50 nM"}

====

Biological target: RET tyrosine kinase (Homo sapiens (Human), UniProt P07949)
Sequence (P07949 29-1114): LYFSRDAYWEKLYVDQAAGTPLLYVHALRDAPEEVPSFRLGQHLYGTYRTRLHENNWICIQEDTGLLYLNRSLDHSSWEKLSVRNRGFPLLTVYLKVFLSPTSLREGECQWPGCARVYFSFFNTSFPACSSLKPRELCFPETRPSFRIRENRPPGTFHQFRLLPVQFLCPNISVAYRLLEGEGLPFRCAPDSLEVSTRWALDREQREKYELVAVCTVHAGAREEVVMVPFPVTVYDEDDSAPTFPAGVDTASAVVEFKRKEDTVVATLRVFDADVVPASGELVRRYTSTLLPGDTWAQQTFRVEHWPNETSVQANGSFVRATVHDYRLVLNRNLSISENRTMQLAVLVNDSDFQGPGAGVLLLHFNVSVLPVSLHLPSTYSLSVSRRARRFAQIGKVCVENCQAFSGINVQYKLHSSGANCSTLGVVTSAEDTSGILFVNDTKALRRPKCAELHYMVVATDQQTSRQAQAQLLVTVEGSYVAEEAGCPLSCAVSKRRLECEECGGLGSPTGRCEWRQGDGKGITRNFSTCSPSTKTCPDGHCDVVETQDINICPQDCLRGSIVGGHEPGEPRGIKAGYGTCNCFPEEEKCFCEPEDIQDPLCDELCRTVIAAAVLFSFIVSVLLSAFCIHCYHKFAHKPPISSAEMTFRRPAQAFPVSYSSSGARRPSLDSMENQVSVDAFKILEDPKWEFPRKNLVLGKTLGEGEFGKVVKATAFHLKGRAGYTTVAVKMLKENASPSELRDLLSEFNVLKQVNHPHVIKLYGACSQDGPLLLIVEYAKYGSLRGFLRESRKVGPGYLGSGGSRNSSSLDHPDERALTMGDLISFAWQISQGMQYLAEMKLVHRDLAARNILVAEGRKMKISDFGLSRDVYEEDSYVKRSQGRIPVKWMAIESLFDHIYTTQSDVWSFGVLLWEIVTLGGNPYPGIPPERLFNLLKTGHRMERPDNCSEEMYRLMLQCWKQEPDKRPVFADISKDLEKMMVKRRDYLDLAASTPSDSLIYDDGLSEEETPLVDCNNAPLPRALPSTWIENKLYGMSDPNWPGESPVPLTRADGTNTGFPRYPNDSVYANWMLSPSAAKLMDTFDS
Test: Assay of small molecular compounds for inhibiting the activity of RET kinase (LANCE TR-FRET)
pIC50: −log10 of the molar value.

{"compound": "COc1cc2nccc(Oc3ccc(NC(=O)NCC(C)C)c(Cl)c3)c2c2c1OCCO2", "assay-target": "RET tyrosine kinase (Homo sapiens (Human), UniProt P07949)", "pIC50": "6.30 to 7.30"}
{"compound": "COc1cc2nccc(Oc3ccc(NC(=O)NC4CC4)c(Cl)c3)c2c2c1OCCO2", "assay-target": "RET tyrosine kinase (Homo sapiens (Human), UniProt P07949)", "pIC50": "> 7.30"}
{"compound": "CCNC(=O)Nc1ccc(Oc2ccnc3cc(OCCCN4CCOCC4)c4c(c23)OCCO4)cc1Cl", "assay-target": "RET tyrosine kinase (Homo sapiens (Human), UniProt P07949)", "pIC50": "> 7.30"}
{"compound": "COCCOc1cc2nccc(Oc3ccc(NC(=O)Nc4cc(C(F)(F)F)ccc4F)cc3)c2c2c1OCCO2", "assay-target": "RET tyrosine kinase (Homo sapiens (Human), UniProt P07949)", "pIC50": "> 7.30"}
{"compound": "COc1cc2nccc(Oc3ccc(NC(=O)Nc4ccc(F)cc4F)cc3)c2c2c1OCCO2", "assay-target": "RET tyrosine kinase (Homo sapiens (Human), UniProt P07949)", "pIC50": "6.30 to 7.30"}
{"compound": "O=C(Nc1ccc(Oc2ccnc3cc(OCCCN4CCOCC4)c4c(c23)OCCO4)cc1Cl)NC1CCCC1", "assay-target": "RET tyrosine kinase (Homo sapiens (Human), UniProt P07949)", "pIC50": "> 7.30"}
{"compound": "COc1cc2nccc(Oc3ccc(NC(=O)Nc4ccc(F)cc4)cc3)c2c2c1OCCO2", "assay-target": "RET tyrosine kinase (Homo sapiens (Human), UniProt P07949)", "pIC50": "6.30 to 7.30"}
{"compound": "O=C(Nc1ccc(Oc2ccnc3cc(OCCCN4CCS(=O)(=O)CC4)c4c(c23)OCCO4)cc1)Nc1ccc(Cl)c(C(F)(F)F)c1", "assay-target": "RET tyrosine kinase (Homo sapiens (Human), UniProt P07949)", "pIC50": "6.30 to 7.30"}
{"compound": "CCCNC(=O)Nc1ccc(Oc2ccnc3cc(OCCCN4CCOCC4)c4c(c23)OCCO4)cc1Cl", "assay-target": "RET tyrosine kinase (Homo sapiens (Human), UniProt P07949)", "pIC50": "> 7.30"}
{"compound": "COCCCOc1cc2nccc(Oc3ccc(NC(=O)Nc4ccc(Cl)c(C(F)(F)F)c4)cc3F)c2c2c1OCCO2", "assay-target": "RET tyrosine kinase (Homo sapiens (Human), UniProt P07949)", "pIC50": "6.30 to 7.30"}
{"compound": "O=C(Nc1ccc(Oc2ccnc3cc(OC4CCOCC4)c4c(c23)OCCO4)cc1)Nc1ccc(Cl)c(C(F)(F)F)c1", "assay-target": "RET tyrosine kinase (Homo sapiens (Human), UniProt P07949)", "pIC50": "6.30 to 7.30"}
{"compound": "CNC(=O)Nc1ccc(Oc2ccnc3cc(OCCCN4CCOCC4)c4c(c23)OCCO4)cc1Cl", "assay-target": "RET tyrosine kinase (Homo sapiens (Human), UniProt P07949)", "pIC50": "> 7.30"}
{"compound": "O=C(Nc1ccc(Oc2ccnc3cc(OCCCN4CCOCC4)c4c(c23)OCCO4)c(F)c1)Nc1ccc(Cl)c(C(F)(F)F)c1", "assay-target": "RET tyrosine kinase (Homo sapiens (Human), UniProt P07949)", "pIC50": "6.30 to 7.30"}
{"compound": "COc1cc2nccc(Oc3ccc(NC(=O)NC4CC4)c(F)c3)c2c2c1OCCO2", "assay-target": "RET tyrosine kinase (Homo sapiens (Human), UniProt P07949)", "pIC50": "> 7.30"}
{"compound": "O=C(Nc1ccc(Oc2ccnc3cc(OC4COC4)c4c(c23)OCCO4)cc1)Nc1ccc(Cl)c(C(F)(F)F)c1", "assay-target": "RET tyrosine kinase (Homo sapiens (Human), UniProt P07949)", "pIC50": "6.30 to 7.30"}
{"compound": "O=C(Nc1ccc(Oc2ccnc3cc(OC4CCOC4)c4c(c23)OCCO4)cc1)Nc1ccc(Cl)c(C(F)(F)F)c1 (centres unmarked)", "assay-target": "RET tyrosine kinase (Homo sapiens (Human), UniProt P07949)", "pIC50": "6.30 to 7.30"}
{"compound": "N#CCOc1cc2nccc(Oc3ccc(NC(=O)Nc4ccc(Cl)c(C(F)(F)F)c4)cc3)c2c2c1OCCO2", "assay-target": "RET tyrosine kinase (Homo sapiens (Human), UniProt P07949)", "pIC50": "6.30 to 7.30"}
